Form field: Saturated aqueous solution at 25° C. Viscosity (cP) (one value per entry).
- Assay explanation: Viscosity of saturated or unsaturated aqueous solutions of APIs, rotational viscometer (Brooksfield)
- Assay type: physicochemical
- Condition notes: saturated aqueous solution
Counter-ions that a name gives are not always drawn.

The following molecules have reported results that may help.
Indicate its recorded Saturated aqueous solution at 25° C. Viscosity (cP); the molecule in question is CCCCCCCCOc1ccccc1C(=O)Nc1ccc(C(=O)OCC[N+](C)(CC)CC)cc1 [Otilonium bromide]
~540 cP

Indicate its recorded Saturated aqueous solution at 25° C. Viscosity (cP); the molecule in question is Cc1ccc(NC(=O)c2ccc(CN3CCN(C)CC3)cc2)cc1Nc1nccc(-c2cccnc2)n1 [Imatinib mesylate]
~1100 cP

---
Indicate its recorded Saturated aqueous solution at 25° C. Viscosity (cP); the molecule in question is COc1cc2nc(N(C)CCCNC(=O)C3CCCO3)nc(N)c2cc1OC (stereo not drawn) [Alfuzosin HCl]
~170 cP

Indicate its recorded Saturated aqueous solution at 25° C. Viscosity (cP); the molecule in question is CN(C)C(=N)N=C(N)N [Metformin HCl]
~2 cP

Indicate its recorded Saturated aqueous solution at 25° C. Viscosity (cP); the molecule in question is CCN1CCCC1CNC(=O)c1cc(S(N)(=O)=O)ccc1OC (stereo not drawn) [Sulpiride]
~2 cP

Indicate its recorded Saturated aqueous solution at 25° C. Viscosity (cP); the molecule in question is NS(=O)(=O)c1cc2c(cc1Cl)NCNS2(=O)=O [Hydrochlorothiazide]
~1 cP
